System: Fibroblast
test.details: Incucyte cell viability with human fibroblast; also: unitless GR value; below 1 slowed growth and below 0 cell loss
Type: toxicity, cell-based
condition.details: 24 h, 10 µM, compound concentration 10 uM, replicate number 1
Label Condition met when Growth Rate >= 0.9; otherwise Condition not met.

Recorded results for 7 compounds are shown here.
[[record]]
compound = "COc1cc(Oc2ccnc3cc(OC)c(OC)cc23)ccc1NC(=O)NC(C)c1nccs1 (centres undefined)"
assay_target = "Fibroblast"
qualitative_label = "Condition not met"

[[record]]
compound = "CNC(=O)O[C@H]1COc2ccc(N3CCN(C4COC4)CC3)cc2[C@@H]1NC(=O)c1ccc(F)cc1"
assay_target = "Fibroblast"
qualitative_label = "Condition met"

[[record]]
compound = "COc1ccc(/C=C/C(=O)NO)c(-c2ccc(-c3ccccc3)cc2)c1"
assay_target = "Fibroblast"
qualitative_label = "Condition not met"

[[record]]
compound = "O=C(c1ccc2c(ccn2-c2ccc(F)cc2)c1)N1CC(N2CCN(C(=O)c3nccs3)CC2)C1"
assay_target = "Fibroblast"
qualitative_label = "Condition not met"

[[record]]
compound = "CCCOC(=O)N1CCN(C(=O)c2ccc3c(Cl)cc(-c4ccc(C5(N)CC5)cc4)nc3c2)C[C@H]1C"
assay_target = "Fibroblast"
qualitative_label = "Condition met"

[[record]]
compound = "CC(C)[C@H](NC(=O)OCc1ccccc1)C(=O)NC(CC(=O)O)C(=O)CF (some centres undefined)"
assay_target = "Fibroblast"
qualitative_label = "Condition not met"

[[record]]
compound = "COc1ccccc1C(=O)Nc1cc2c(cc1N1CCCCC1)n(C)c(=O)n2C"
assay_target = "Fibroblast"
qualitative_label = "Condition met"


Turning to the following compound.
Task item: Could you verify whether the entry "N=C(N)N/N=C/c1cccc(Cl)c1Cl" shows Growth Rate of no less than 0.9?
Reply: Condition not met

This collection of values is drawn from ChEMBL document CHEMBL5724709.
